targetOrTestSystem: novel bilirubin oxidase M-1 of Trachyderma tsunodae K-2593 (Trachydermella tsunodae, UniProt O61263)
Sequence (O61263 22-521): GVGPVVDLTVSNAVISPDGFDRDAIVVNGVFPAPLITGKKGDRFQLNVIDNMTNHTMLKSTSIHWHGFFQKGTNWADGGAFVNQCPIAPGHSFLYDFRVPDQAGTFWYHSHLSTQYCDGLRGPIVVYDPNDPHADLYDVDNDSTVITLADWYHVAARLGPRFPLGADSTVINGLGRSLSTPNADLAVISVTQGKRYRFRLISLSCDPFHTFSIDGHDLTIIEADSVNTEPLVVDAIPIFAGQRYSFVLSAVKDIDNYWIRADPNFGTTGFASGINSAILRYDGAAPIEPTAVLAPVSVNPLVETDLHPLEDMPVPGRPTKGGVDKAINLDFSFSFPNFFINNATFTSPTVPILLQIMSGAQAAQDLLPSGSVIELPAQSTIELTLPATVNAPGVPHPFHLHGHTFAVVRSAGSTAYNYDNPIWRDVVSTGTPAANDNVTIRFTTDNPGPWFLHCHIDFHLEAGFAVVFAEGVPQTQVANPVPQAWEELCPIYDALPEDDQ
assayProtocol: Effect of interfering agents on bilirubin oxidase activity (decrease in absorption at 460 nm of bilirubin)
Format: biochemical
experimentalConditions: 10 min, pH 7, read-out: Percent interference (%)
parameterMeasured: inhibition at 1000 µM (%)
Just the number please, in %, no unit attached.

Past entries and their recorded results:
O=C(O)CN(CCN(CC(=O)O)CC(=O)O)CC(=O)O :: 59
c1ccc(-c2ccccn2)nc1 :: 30

Form: molecule = N[C@@H](CCC(=O)N[C@@H](CS)C(=O)NCC(=O)O)C(=O)O ; inhibition at 1000 µM = 38

Sample O=C(O)CI ; inhibition at 1000 µM observed: 10

Hello, the source for this data is patent US4600689A, in case you need it.
